test system: human TASK-3 (Homo sapiens)
Sequence (Q9NPC2 whole entry): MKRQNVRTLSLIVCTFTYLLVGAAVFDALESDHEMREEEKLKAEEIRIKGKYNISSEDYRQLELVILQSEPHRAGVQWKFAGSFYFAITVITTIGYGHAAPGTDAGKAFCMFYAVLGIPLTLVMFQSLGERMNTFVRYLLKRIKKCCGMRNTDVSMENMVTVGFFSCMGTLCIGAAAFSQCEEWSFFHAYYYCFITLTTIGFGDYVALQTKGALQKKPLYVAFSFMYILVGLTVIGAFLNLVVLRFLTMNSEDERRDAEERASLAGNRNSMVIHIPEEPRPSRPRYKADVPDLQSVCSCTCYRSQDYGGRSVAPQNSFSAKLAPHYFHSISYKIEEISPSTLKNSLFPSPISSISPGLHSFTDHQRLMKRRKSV
assay name: Inhibition of recombinant TASK-3 in stably transfected CHO cells, KCl-induced depolarization, voltage-sensitive dye (B-2)
Format: cell-based
Design: expressed in transfected cells; host or cells: stably transfected CHO cells
assay setup: depolarization induced by 40 mM potassium chloride, some mean values from multiple determinations
Below, each entry is listed with its recorded pIC50.
Reminder that pIC50 means the negative base-10 logarithm of the concentration expressed in mol/L.

Some compounds with known pIC50 results, for comparison:
| compound | test system | pIC50 |
| --- | --- | --- |
| O=C(c1ccccn1)N1CC2CCC1CN2Cc1c(-c2ccc(Cl)cc2)nc2ccccn12 (single isomer, unassigned) | human TASK-3 (Homo sapiens) | 7.47 |
| CCN(C(=O)N1C2CCC1CN(Cc1c(-c3ccc(Cl)cc3)nc3ccccn13)C2)c1ccc(C)cc1 | human TASK-3 (Homo sapiens) | 6.00 |
| COc1cccc(C(=O)N2CC3CCC2CN3Cc2c(-c3ccc(Cl)cc3)nc3ccccn23)c1 (single isomer, unassigned) [Example 39] | human TASK-3 (Homo sapiens) | 6.43 |

The record that follows has no pIC50 shown yet.
*Q* Return reported pIC50; argument: O=C(c1ccccc1F)N1C2CCC1CN(Cc1c(-c3ccc(Cl)cc3)nc3ccccn13)C2
*A* 7.25

----------
test system: human TASK-1 (Homo sapiens)
assay name: Inhibition of recombinant TASK-1 in stably transfected CHO cells, KCl-induced depolarization, voltage-sensitive dye (B-2)
Assay type: cell-based
Parameters: expressed in transfected cells; host or cells: stably transfected CHO cells
assay setup: depolarization induced by 40 mM potassium chloride, some mean values from multiple determinations
Below, each entry is listed with its recorded IC50.
Reply with just the number (in nM).

Some compounds with known IC50 results, for comparison:
| compound | test system | units text | IC50 |
| --- | --- | --- | --- |
| COc1ccc(Cl)c(C(=O)N2C3COCC2CN(Cc2c(-c4ccc(Cl)cc4)nc4ccccn24)C3)c1 | human TASK-1 (Homo sapiens) | nM | 330 |
| O=C(N1CCOCC1)N1C2CCC1CN(Cc1c(-c3ccc(Cl)cc3)nc3ccccn13)C2 | human TASK-1 (Homo sapiens) | nM | 1700 |
| CC(C)(C)OC(=O)N1C2CCC1CN(Cc1c(-c3ccc(Cl)cn3)nc3ccccn13)C2 | human TASK-1 (Homo sapiens) | nM | 5100 |
| CC(C)NC(=O)N1C2CCC1CN(Cc1c(-c3ccc(Cl)cc3)nc3ccccn13)C2 | human TASK-1 (Homo sapiens) | nM | 130 |
| O=C(c1ccccn1)N1CC2CCC1CN2Cc1c(-c2ccc(Cl)cc2)nc2ccccn12 (single isomer, unassigned) | human TASK-1 (Homo sapiens) | nM | 290 |
| COc1ccc(C)c(C(=O)N2CC3CCC(C2)N3Cc2c(-c3ccc(C(C)C)cc3)nc3ccccn23)n1 | human TASK-1 (Homo sapiens) | nM | 180 |

The record that follows has no IC50 shown yet.
*Q* Return reported IC50; argument: O=C(N1CCCC1)N1C2CCC1CN(Cc1c(-c3ccc(Cl)cc3)nc3ccccn13)C2
*A* 49

----------
test system: human TASK-1 (Homo sapiens, UniProt O14649)
Sequence (O14649 whole entry): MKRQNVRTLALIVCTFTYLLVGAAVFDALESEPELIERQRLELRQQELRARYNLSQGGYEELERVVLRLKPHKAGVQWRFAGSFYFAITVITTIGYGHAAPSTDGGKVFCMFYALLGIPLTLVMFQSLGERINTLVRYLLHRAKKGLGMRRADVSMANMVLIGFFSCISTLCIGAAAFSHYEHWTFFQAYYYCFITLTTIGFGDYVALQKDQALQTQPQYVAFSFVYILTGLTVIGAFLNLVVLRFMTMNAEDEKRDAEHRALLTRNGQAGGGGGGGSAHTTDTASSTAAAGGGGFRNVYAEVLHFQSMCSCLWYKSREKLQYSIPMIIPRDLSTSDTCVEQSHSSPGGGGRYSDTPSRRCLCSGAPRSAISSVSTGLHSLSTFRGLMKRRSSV
assay name: Inhibition of recombinant TASK-1 in stably transfected CHO cells, KCl-induced depolarization, voltage-sensitive dye (B-2)
Assay type: cell-based
Parameters: expressed in transfected cells; host or cells: stably transfected CHO cells
assay setup: depolarization induced by 40 mM potassium chloride, some mean values from multiple determinations
Below, each entry is listed with its recorded pIC50.
Reminder that pIC50 means the negative base-10 logarithm of the concentration expressed in mol/L.

Some compounds with known pIC50 results, for comparison:
| compound | test system | pIC50 |
| --- | --- | --- |
| CC(C)c1ccccc1C(=O)N1C2CCC1CN(Cc1c(-c3ccc(Br)cc3)nc3ccccn13)C2 | human TASK-1 (Homo sapiens, UniProt O14649) | 6.60 |
| O=C(Nc1ccccc1F)N1C2CCC1CN(Cc1c(-c3ccc(Cl)cc3)nc3ccccn13)C2 | human TASK-1 (Homo sapiens, UniProt O14649) | 6.21 |
| COc1ccc(C)c(C(=O)N2CC3CCC2CN3Cc2c(-c3ccc(C(C)C)cc3)nc3ccccn23)n1 (single isomer, unassigned) | human TASK-1 (Homo sapiens, UniProt O14649) | 6.72 |

*Q* Return reported pIC50; argument: COc1cccc(C(=O)N2C3CCC2CN(Cc2c(-c4ccc(Br)cc4)nc4ccccn24)C3)n1
*A* 6.35
